Reported inhibition in vivo at 100 mg/kg values for the following compounds.
System: kaolin-induced rat paw edema
experiment: kaolin-induced rat paw edema assay: inhibition of paw swelling, single oral dose
Format: in vivo, rat (male Holtzman)
conditions: Rattus norvegicus, po, Table I; 100 mg/kg p.o.; read-out: % INHIBITION (Average 10 rats)
Quick reminder: number only, in %, skip the unit.

Here are 3 compounds together with their reported answers.
compound	inhibition in vivo at 100 mg/kg / %
Cn1c(CC(=O)O)ccc1C(=O)c1ccc([N+](=O)[O-])cc1 [5-(p-nitrobenzoyl)-do]	35
Cc1cc(CC(=O)O)[nH]c1C(=O)c1ccccc1 [5-benzoyl-4-methylpyrrole-2-acetic acid, 5-Benzoyl-4-methylpyrrole-2-acetic acid]	34
Cn1c(CC(=O)O)ccc1C(=O)c1ccc(C#N)cc1 [5-(p-cyanobenzoyl)-do]	20

// lookup inhibition in vivo at 100 mg/kg for `CCn1c(CC(=O)O)ccc1C(=O)c1ccc(Cl)cc1`
43
